B1: library; numbered along this chain (parent)
chain: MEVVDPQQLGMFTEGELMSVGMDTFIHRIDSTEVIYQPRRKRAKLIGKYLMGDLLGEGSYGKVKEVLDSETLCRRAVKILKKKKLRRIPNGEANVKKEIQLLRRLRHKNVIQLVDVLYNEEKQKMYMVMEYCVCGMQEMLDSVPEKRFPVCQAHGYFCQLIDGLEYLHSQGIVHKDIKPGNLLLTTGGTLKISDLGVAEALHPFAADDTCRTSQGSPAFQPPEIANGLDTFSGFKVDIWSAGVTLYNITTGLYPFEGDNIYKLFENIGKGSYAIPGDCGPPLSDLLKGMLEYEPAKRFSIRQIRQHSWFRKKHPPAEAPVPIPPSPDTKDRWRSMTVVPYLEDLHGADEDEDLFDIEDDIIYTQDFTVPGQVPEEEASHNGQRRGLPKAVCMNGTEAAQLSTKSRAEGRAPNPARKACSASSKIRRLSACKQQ

variants of: B1; test: STK11 functional score (HeLa growth suppression), rescaled enrichment; synonymous median = 1, nonsense median = 0 (normalised score); settings: with HeLa; variant type: missense
Checkbox rule: STK11 functional score lower than 0.9 = Yes; STK11 functional score not lower than 0.9 = No.

Incoming: Problem: For the variant K97A , is STK11 functional score under 0.9?
Outgoing: No

Incoming: Problem: For the variant L105A , is STK11 functional score under 0.9?
Outgoing: No

Incoming: Problem: For the variant L50C , is STK11 functional score under 0.9?
Outgoing: No

Incoming: Problem: For the variant P315T , is STK11 functional score under 0.9?
Outgoing: No

Incoming: Problem: For the variant L17P , is STK11 functional score under 0.9?
Outgoing: No

Incoming: Problem: For the variant V128A , is STK11 functional score under 0.9?
Outgoing: Yes

Incoming: Problem: For the variant E70V , is STK11 functional score under 0.9?
Outgoing: No

Incoming: Problem: For the variant G163R , is STK11 functional score under 0.9?
Outgoing: Yes

Incoming: Problem: For the variant Y292E , is STK11 functional score under 0.9?
Outgoing: No

Incoming: Problem: For the variant A200M , is STK11 functional score under 0.9?
Outgoing: No

Incoming: Problem: For the variant P294T , is STK11 functional score under 0.9?
Outgoing: No

Incoming: Problem: For the variant T189F , is STK11 functional score under 0.9?
Outgoing: No

Incoming: Problem: For the variant L140P , is STK11 functional score under 0.9?
Outgoing: Yes

Incoming: Problem: For the variant P387Y , is STK11 functional score under 0.9?
Outgoing: No

Incoming: Problem: For the variant F366R , is STK11 functional score under 0.9?
Outgoing: No

Incoming: Problem: For the variant C430G , is STK11 functional score under 0.9?
Outgoing: No

Incoming: Problem: For the variant C210P , is STK11 functional score under 0.9?
Outgoing: No

Incoming: Problem: For the variant Y292C , is STK11 functional score under 0.9?
Outgoing: Yes

Incoming: Problem: For the variant P6E , is STK11 functional score under 0.9?
Outgoing: No

Incoming: Problem: For the variant L9V , is STK11 functional score under 0.9?
Outgoing: Yes

Incoming: Problem: For the variant V197M , is STK11 functional score under 0.9?
Outgoing: Yes

Incoming: Problem: For the variant T250I , is STK11 functional score under 0.9?
Outgoing: No

Incoming: Problem: For the variant C134T , is STK11 functional score under 0.9?
Outgoing: No

Incoming: Problem: For the variant H345Y , is STK11 functional score under 0.9?
Outgoing: No

Incoming: Problem: For the variant C418D , is STK11 functional score under 0.9?
Outgoing: No

Incoming: Problem: For the variant I356T , is STK11 functional score under 0.9?
Outgoing: No

Incoming: Problem: For the variant K78W , is STK11 functional score under 0.9?
Outgoing: Yes

Incoming: Problem: For the variant G56Q , is STK11 functional score under 0.9?
Outgoing: Yes

Incoming: Problem: For the variant T402A , is STK11 functional score under 0.9?
Outgoing: No

Incoming: Problem: For the variant A273I , is STK11 functional score under 0.9?
Outgoing: No

Incoming: Problem: For the variant K175P , is STK11 functional score under 0.9?
Outgoing: Yes

Incoming: Problem: For the variant V173W , is STK11 functional score under 0.9?
Outgoing: Yes

Incoming: Problem: For the variant D330N , is STK11 functional score under 0.9?
Outgoing: No

Incoming: Problem: For the variant K64Q , is STK11 functional score under 0.9?
Outgoing: No

Incoming: Problem: For the variant K124I , is STK11 functional score under 0.9?
Outgoing: No

Incoming: Problem: For the variant V3S , is STK11 functional score under 0.9?
Outgoing: No

Incoming: Problem: For the variant S325D , is STK11 functional score under 0.9?
Outgoing: No

Incoming: Problem: For the variant D141P , is STK11 functional score under 0.9?
Outgoing: Yes

Incoming: Problem: For the variant P373V , is STK11 functional score under 0.9?
Outgoing: Yes

Incoming: Problem: For the variant D358P , is STK11 functional score under 0.9?
Outgoing: Yes

Incoming: Problem: For the variant N181E , is STK11 functional score under 0.9?
Outgoing: Yes

Incoming: Problem: For the variant G61M , is STK11 functional score under 0.9?
Outgoing: Yes

Incoming: Problem: For the variant P411W , is STK11 functional score under 0.9?
Outgoing: Yes

Incoming: Problem: For the variant C151G , is STK11 functional score under 0.9?
Outgoing: Yes

Incoming: Problem: For the variant G346R , is STK11 functional score under 0.9?
Outgoing: No

Incoming: Problem: For the variant A347H , is STK11 functional score under 0.9?
Outgoing: Yes

Incoming: Problem: For the variant T395C , is STK11 functional score under 0.9?
Outgoing: No

Incoming: Problem: For the variant K48N , is STK11 functional score under 0.9?
Outgoing: No

Incoming: Problem: For the variant D355L , is STK11 functional score under 0.9?
Outgoing: No

Incoming: Problem: For the variant G276C , is STK11 functional score under 0.9?
Outgoing: No

Incoming: Problem: For the variant D352C , is STK11 functional score under 0.9?
Outgoing: No

Incoming: Problem: For the variant F255S , is STK11 functional score under 0.9?
Outgoing: No

Incoming: Problem: For the variant T250K , is STK11 functional score under 0.9?
Outgoing: Yes

Incoming: Problem: For the variant A153L , is STK11 functional score under 0.9?
Outgoing: Yes

Incoming: Problem: For the variant E265I , is STK11 functional score under 0.9?
Outgoing: No

Incoming: Problem: For the variant K262E , is STK11 functional score under 0.9?
Outgoing: No

Incoming: Problem: For the variant S216A , is STK11 functional score under 0.9?
Outgoing: Yes

Incoming: Problem: For the variant N94Q , is STK11 functional score under 0.9?
Outgoing: No

Incoming: Problem: For the variant V128Y , is STK11 functional score under 0.9?
Outgoing: No

Incoming: Problem: For the variant S59H , is STK11 functional score under 0.9?
Outgoing: No

Incoming: Problem: For the variant R39I , is STK11 functional score under 0.9?
Outgoing: No

Incoming: Problem: For the variant P217G , is STK11 functional score under 0.9?
Outgoing: No

Incoming: Problem: For the variant Q399G , is STK11 functional score under 0.9?
Outgoing: No
